biological target: human KHK-A (Homo sapiens (Human)); assay: KHK Biochemical Assay (IC50), ADP-Glo, KHK-A; conditions: ADP-Glo; average of at least two separate assays
Sequence (P50053 other isoform, or with tags, fused parts or gaps): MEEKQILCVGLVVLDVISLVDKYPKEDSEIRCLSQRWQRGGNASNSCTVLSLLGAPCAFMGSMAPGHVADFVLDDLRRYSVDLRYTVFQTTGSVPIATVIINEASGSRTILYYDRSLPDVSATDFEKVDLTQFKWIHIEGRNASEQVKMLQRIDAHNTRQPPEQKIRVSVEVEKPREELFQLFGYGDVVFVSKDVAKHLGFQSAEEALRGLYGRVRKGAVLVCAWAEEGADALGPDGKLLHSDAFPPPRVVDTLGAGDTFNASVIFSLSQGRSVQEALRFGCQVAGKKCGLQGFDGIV
Quick rule for you: IC50 under 70 nM gets Fulfilled, anything else gets Not fulfilled.

Field: example entries. Status: answers known.
MOLECULE	GROUP
O=C1N[C@@]2(CO1)COc1cc(-c3nc(N4CC[C@@H]4C(F)(F)F)nc4c3CCC4(F)F)ccc12	Fulfilled
C[C@H]1CCN1c1nc2c(c(-c3ccc4c(c3)C(O)CC4NS(C)(=O)=O)n1)CCC2 (stereo partly drawn)	Fulfilled

Is IC50 of C[C@H]1CCN1c1nc2c(c(-c3cccc(OC(F)F)c3)n1)CCC2 strictly below 70 nM?
Not fulfilled

Next molecule up: C[C@H]1CCN1c1nc2c(c(-c3ccc4c(O)nc(O)cc4c3)n1)CCC2
Fulfilled

Next molecule up: C[C@H]1CCN1c1nc2c(c(-c3cc4ccccc4[nH]3)n1)CCC2
Not fulfilled
